pIC50 listing for selected compounds.
- Measured Target: β1i (Homo sapiens, UniProt P28065+P40306)
- Construct: protease activity associated with the proteasome complex in cultured cells; endogenous in cells
- Assay Info: Cell-Based Proteasome Activity/Selectivity Assay (Ramos cells), substrate (PAL)2Rh110
- Test Context: highest concentration tested 20 μM
Scale: negative log10 of molar concentration, which is what pIC50 denotes.

Here's what some known entries look like.
CC(C)C[C@H](NC(=O)[C@H](C)NC(=O)OCc1ccccc1)C(=O)N[C@@H](Cc1ccccc1)C(=O)C(=O)NCc1ccccc1 [Example 36]; 6.44
COc1ccc(C[C@H](NC(=O)[C@H](C)NS(=O)(=O)c2ccccc2C)C(=O)N[C@@H](Cc2ccccc2)C(=O)C(=O)NCc2ccccc2)cc1 [Example 40]; 5.94
CC(C)C[C@H](NC(=O)[C@H](C)NC(=O)C1Cc2ccccc2C1)C(=O)N[C@@H](Cc1ccccc1)C(=O)C(=O)NCc1ccccc1 [Example 24]; 6.36
COc1ccc(C[C@H](NC(=O)[C@H](C)NC(=O)c2cn3ccccc3n2)C(=O)N[C@@H](Cc2ccccc2)C(=O)C(=O)NCc2ccccc2)cc1 [Example 49]; 6.30
COc1ccc(C[C@H](NC(=O)C2(NC(=O)OCc3ccccc3)CC2)C(=O)N[C@@H](Cc2ccccc2)C(=O)C(=O)NCc2ccccc2)cc1 [Example 28]; 5.32

Find the recorded pIC50 belonging to COc1ccc(C[C@H](NC(=O)[C@H](C)NC(=O)C2Cc3ccccc3C2)C(=O)N[C@@H](Cc2ccccc2)C(=O)C(=O)NCc2ccccc2)cc1 [Example 19] and report it. 6.63

I would be grateful if you could share the reported pIC50 for C[C@H](NC(=O)c1ccnn1C)C(=O)N[C@@H](Cc1c[nH]c2ccccc12)C(=O)N[C@@H](Cc1ccccc1)C(=O)C(=O)NCc1ccccc1 [Example 30] . 6.24

Quick one: pIC50 for C[C@H](NC(=O)C1Cc2ccccc2C1)C(=O)N[C@@H](Cc1ccccc1)C(=O)N[C@@H](Cc1ccccc1)C(=O)C(=O)NCc1ccccc1 [Example 43] ? 6.59

Suppose we examine the compound C[C@H](NC(=O)OCc1ccccc1)C(=O)NC(CC(F)(F)F)C(=O)N[C@@H](Cc1ccccc1)C(=O)C(=O)NCc1ccccc1 (stereo partly drawn) [Example 57] ; what pIC50 value has been reported? 5.56

Could you tell me which pIC50 is on file for CCCC[C@H](NC(=O)[C@H](CC(C)C)NC(=O)[C@@H](NC(=O)[C@H](Cc1ccccc1C)NC(C)=O)C(C)(C)C)C(=O)C(=O)NCc1ccccc1 [Example 1] ? 6.04

// returns reported pIC50 for input CNC(=O)C(=O)[C@H](Cc1ccccc1)NC(=O)[C@H](Cc1c[nH]c2ccccc12)NC(=O)[C@H](C)NC(=O)OCc1ccccc1 [Example 31] 6.61

Please give the measured pIC50 for this compound: COc1ccc(C[C@H](NC(=O)[C@H](C)NC(=O)CN2CCOc3ccccc32)C(=O)N[C@@H](Cc2ccccc2)C(=O)C(=O)NCc2ccccc2)cc1 [Example 35] 6.40

====

- Measured Target: β1c (Homo sapiens, UniProt P28072+Q99436)
- Construct: protease activity associated with the proteasome complex in cultured cells; endogenous in cells
- Assay Info: Cell-Based Proteasome Activity/Selectivity Assay (Ramos cells), substrate (LLE)2 Rh110
- Test Context: highest concentration tested 20 μM
Measurement Kind: pIC50
Note: pIC50 values are expressed as the negative base-10 logarithm of concentration in M.

Check out these entries, answers already filled in.
CC1=C(C(=O)N[C@@H](C)C(=O)N[C@@H](Cc2c[nH]c3ccccc23)C(=O)N[C@@H](Cc2ccccc2)C(=O)C(=O)NCc2ccccc2)Cc2ccccc21 [Example 48]; 4.87
Cc1cc(C(=O)N[C@@H](C)C(=O)N[C@@H](Cc2c[nH]c3ccccc23)C(=O)N[C@@H](Cc2ccccc2)C(=O)C(=O)NCc2ccccc2)no1 [Example 47]; 5.20
CCCC[C@H](NC(=O)[C@H](Cc1c[nH]c2ccccc12)NC(=O)[C@H](C)NC(=O)C1=C(C)c2ccccc2C1)C(=O)C(=O)NCc1ccccc1 [Example 5]; 5.48
C[C@H](NC(=O)c1ccnn1C)C(=O)N[C@@H](Cc1c[nH]c2ccccc12)C(=O)N[C@@H](Cc1ccccc1)C(=O)C(=O)NCc1ccccc1 [Example 30]; 4.90
C[C@H](NC(=O)OCc1ccccc1)C(=O)N[C@@H](Cc1c[nH]c2ccccc12)C(=O)N[C@@H](Cc1ccccc1)C(=O)C(=O)NCc1ccccc1 [Example 16]; 4.74

Below: the item to evaluate.
Please look up its pIC50: COc1ccc(C[C@H](NC(=O)[C@H](C)NC(=O)c2cnccn2)C(=O)N[C@@H](Cc2ccccc2)C(=O)C(=O)NCc2ccccc2)cc1 [Example 29] 5.25

====

- Measured Target: β5i (Homo sapiens, UniProt P20618+P28062)
- Construct: protease activity associated with the proteasome complex in cultured cells; endogenous in cells
- Assay Info: Cell-Based Proteasome Activity/Selectivity Assay (Ramos cells), substrate (ANW)2Rh110
- Test Context: highest concentration tested 20 μM, read-out: Ic50 ramos:ac-(anw)2-r110
Measurement Kind: IC50 (nM)
Enter your answer as a number in nM; do not include the unit.

Some solved entries appear below for comparison.
CCCC[C@H](NC(=O)[C@H](CC(C)C)NC(=O)[C@@H](NC(=O)CN1CCOCC1)C(C)(C)C)C(=O)C(=O)NCc1ccccc1; 2080
COc1ccc(C[C@H](NC(=O)[C@@H](NC(=O)C2Cc3ccccc3C2)C2CC2)C(=O)N[C@@H](Cc2ccccc2)C(=O)C(=O)NCc2ccccc2)cc1; 4
CC(C)C[C@H](NC(=O)[C@H](C)NC(=O)c1ccnn1C)C(=O)N[C@@H](Cc1ccccc1)C(=O)C(=O)NCc1ccccc1; 234
CCCC[C@H](NC(=O)[C@H](Cc1c[nH]c2ccccc12)NC(=O)[C@H](C)NC(=O)C1Cc2ccccc2C1)C(=O)C(=O)NCc1ccccc1; 14
CCCC[C@H](NC(=O)[C@H](Cc1c[nH]c2ccccc12)NC(=O)[C@H](C)NC(=O)c1cc(C)on1)C(=O)C(=O)NCc1ccccc1; 83

// moving on: another record for IC50
Query (compound): C[C@H](NC(=O)OCc1ccccc1)C(=O)NC(CC1CCOCC1)C(=O)N[C@@H](Cc1ccccc1)C(=O)C(=O)NCc1ccccc1 (stereo partly drawn) ; field requested: IC50 115

====

- Measured Target: β5c (Homo sapiens, UniProt P20618+P28074)
- Construct: protease activity associated with the proteasome complex in cultured cells; endogenous in cells
- Assay Info: Cell-Based Proteasome Activity/Selectivity Assay (Ramos cells), substrate (WLA)2Rh110
- Test Context: highest concentration tested 20 μM
- From the text: Cell-Based Proteasome Activity/Selectivity Assay The Cell-Based Proteasome subunit activity/selectivity assay was a panel of 5 fluorogenic assays that independently measured the activity of β5c or β5i (chymotrypsin-like activity), β2c/2i (trypsin-like), and β1c or β1i (caspase-like) protease activity associated with the proteasome complex in cultured cells. […]
pIC50: −log10 of the molar value.
Mark true for reported pIC50 of 6 or greater; mark false for anything smaller.

C[C@H](NC(=O)c1cc(C(F)(F)F)nn1C)C(=O)N[C@@H](Cc1ccccc1)C(=O)N[C@@H](Cc1ccccc1)C(=O)C(=O)NCc1ccccc1; false
CC(C)C[C@H](NC(=O)[C@H](C)NC(=O)c1ccnn1C)C(=O)N[C@@H](Cc1ccccc1)C(=O)C(=O)NCc1ccccc1; false

pIC50 >= 6 for CCCC[C@H](NC(=O)[C@H](CC(C)C)NC(=O)[C@@H](NC(=O)CN1CCOCC1)C(C)(C)C)C(=O)C(=O)NCc1ccccc1 ? false

Test whether the compound CCCC[C@H](NC(=O)[C@H](Cc1c[nH]c2ccccc12)NC(=O)[C@H](C)NC(=O)c1ccnn1C)C(=O)C(=O)NCc1ccccc1 records pIC50 of 6 or higher. false

Is it the case that CCCC[C@H](NC(=O)[C@H](Cc1c[nH]c2ccccc12)NC(=O)[C@H](C)NC(=O)C1=C(C)c2ccccc2C1)C(=O)C(=O)N[C@@H](C)c1ccccc1 has pIC50 reaching or exceeding 6? false

Hi team, for COc1ccc(C[C@H](NC(=O)[C@H](C)NC(=O)c2cn3ccccc3n2)C(=O)N[C@@H](Cc2ccccc2)C(=O)C(=O)NCc2ccccc2)cc1 , is the recorded pIC50 at or above 6? false

Could you please find out whether COc1ccc(C[C@H](NC(=O)[C@H](C)NC(=O)CN2CCOc3ccccc32)C(=O)N[C@@H](Cc2ccccc2)C(=O)C(=O)NCc2ccccc2)cc1 has pIC50 that meets 6 or exceeds it? true

Does CCCC[C@H](NC(=O)[C@H](Cc1c[nH]c2ccccc12)NC(=O)[C@H](C)NC(=O)CN1CCOCC1)C(=O)C(=O)NCc1ccccc1 have a reported pIC50 of at least 6? false

Given the entry CCCC[C@H](NC(=O)[C@H](Cc1c[nH]c2ccccc12)NC(=O)[C@H](C)NC(=O)c1cccc(Cl)c1Cl)C(=O)C(=O)NCc1ccccc1 , answer whether its pIC50 meets or surpasses 6. true

Reference source: patent US20150274777A1
